// provenance: ChEMBL document CHEMBL1154338

Assay: Inhibition of soybean lipoxygenase
Set-up: species or system Glycine max
Assay Endpoint: IC50

### Prompt Would you kindly share the measured IC50 for Cc1cc(C)c(C2=NOC(Cn3cnc4c(N5CCCC5)ncnc43)C2)c(C)c1 (configuration not stated) ?
### Response 100 µM

### Prompt Same again, this time with Cc1cc(C)c(C2=NOC(Cn3cnc4c(N5CCOCC5)ncnc43)C2)c(C)c1 (configuration not stated)
### Response 100 µM
